# Tested on: DU-145 prostate
# Protocol text: NCI-60 one-dose screen, 48 h (100 = growth as untreated, 0 = no growth, -100 = all killed)
# Experimental parameters: 10 µM
# Method: Cells are grown in 96 well plates and exposed to the test compound for 48 hours. Compounds are tested at a single concentration, which is 10^-5 M for most compounds. The reported endpoint is percent growth (GI% or GIPRCNT), where numbers from 0 - 100% represent growth inhibition, and numbers from -100% - 0 represent cell death. For example, a value of 40 represents 60% growth inhibition. A value of 0 means no net growth occurred over the course of the experiment. […]
The panel holds about 83,000 compounds, 20% with a hit somewhere; the sample as a whole holds those more often. Activity calls are given as the source filed them. The calls were made as follows: active = growth percent below 10; inactive = the rest.
Quick reference: growth of the listed items.
Readout type: growth

{"Compound": "CCOC(=O)C/C(C)=N\\O", "Result": "107% (inactive)"}
{"Compound": "O=[N+]([O-])c1ccc(-c2noc(-c3cccs3)n2)cc1", "Result": "89.3% (inactive)"}
{"Compound": "CCOC(=O)CSc1c([N+](=O)[O-])ncn1C", "Result": "105% (inactive)"}
{"Compound": "O=[N+]([O-])c1cccc2nsnc12", "Result": "114% (inactive)"}
{"Compound": "CCCCC(CC)COC(C)=O (stereo not drawn)", "Result": "106% (inactive)"}
{"Compound": "C=CCNc1ccccc1", "Result": "122% (inactive)"}
{"Compound": "Cc1ccc(/C(C#N)=C/c2ccc3c(c2)OCO3)cc1", "Result": "98.1% (inactive)"}
{"Compound": "N#Cc1c(N)sc(=S)c2c1CCCC2", "Result": "113% (inactive)"}
{"Compound": "COS(=O)(=O)c1ccc(Br)cc1", "Result": "102% (inactive)"}
{"Compound": "N=c1c(C(=O)OCc2ccccc2)ncc(CCl)n1O", "Result": "102% (inactive)"}
{"Compound": "CN(C)c1ccc2nc3ccc(=N)cc-3sc2c1", "Result": "86.7% (inactive)"}
{"Compound": "Cc1ccc(C(=O)c2ccccc2)c(C)c1", "Result": "104% (inactive)"}
{"Compound": "Cc1ccc(O)c(C(=O)c2ccccc2)c1", "Result": "112% (inactive)"}
{"Compound": "COc1cccc(/C=N/NC(=S)NC2CC3CCC2C3)c1O (stereo not drawn)", "Result": "56.6% (inactive)"}
{"Compound": "N#Cc1ccc(OC(=O)Nc2ccc(Cl)c(Cl)c2)cc1", "Result": "72.3% (inactive)"}
{"Compound": "COc1cc(CN)ccc1O", "Result": "91.2% (inactive)"}
{"Compound": "COc1ccc(C(O)c2ccccc2)cc1 (stereo not drawn)", "Result": "108% (inactive)"}
{"Compound": "Cc1cccc([N+](=O)[O-])c1Cl", "Result": "105% (inactive)"}
{"Compound": "COc1cc2nn(-c3ccccc3N)nc2cc1OC", "Result": "107% (inactive)"}
{"Compound": "O=C1Cc2ccccc2C(=O)O1", "Result": "129% (inactive)"}
{"Compound": "CC(=O)OC(OC(C)=O)C1CCCO1 (stereo not drawn)", "Result": "112% (inactive)"}
{"Compound": "Cc1cc(C)c(N)c(S(=O)(=O)O)c1", "Result": "129% (inactive)"}
{"Compound": "Oc1ccc2c(c1)OCC1(O)Cc3cc(O)c(O)cc3C21 (stereo not drawn)", "Result": "99.1% (inactive)"}

====

# Test system: NCI/ADR-RES ovarian
# Protocol text: NCI-60 one-dose screen, 48 h (100 = growth as untreated, 0 = no growth, -100 = all killed)
# Experimental parameters: 10 µM
This is part of a sample that, as a whole, favours compounds with a hit. Of some 83,000 tested, about 20% had one in any assay.
Quick reference: growth of the listed items.

{"Compound": "CCOC(=O)c1cc(/C=C/c2cccc(Cl)c2)on1", "growth / %": 91}
{"Compound": "C#CC(C)(O)c1ccc(Cl)cc1 (stereo not drawn)", "growth / %": 92.4}
{"Compound": "O=[N+]([O-])c1cccc(N=Nc2ccc(O)cc2O)c1", "growth / %": 88.8}

====

Quick reference: growth of the listed items.
# System: UACC-62 melanoma
# Protocol text: NCI-60 one-dose screen, 48 h (100 = growth as untreated, 0 = no growth, -100 = all killed)
# Experimental parameters: 10 µM unless noted
About 83,000 compounds went through this panel and 20% of them were active in at least one assay; those are over-represented in the sample as a whole.
Readout type: growth (%)

{"Compound": "NC(=O)N/N=C\\c1ccco1", "Readout type": "growth", "Readout number": 103}
{"Compound": "O=C(c1ccc(Cl)cc1)c1ccccc1Cl", "Readout type": "growth", "Readout number": 87.7}
{"Compound": "COC(=O)/C=C\\C(=O)OC", "Readout type": "growth", "Readout number": 101}
{"Compound": "NC(C(=O)O)C(O)c1ccco1 (stereo not drawn)", "Readout type": "growth", "Readout number": 113}
{"Compound": "CC(C)C(C#N)(C(C)C)C(C)C", "Readout type": "growth", "Readout number": 102}
{"Compound": "CN(c1ccccc1)c1ncnc2c1ncn2C", "Readout type": "growth", "Readout number": 96.8}
{"Compound": "CCOC(=O)C(=O)C=P(c1ccccc1)(c1ccccc1)c1ccccc1", "Readout type": "growth", "Readout number": 107}
{"Compound": "CC(=O)CC(=O)N(C)C", "Readout type": "growth", "Readout number": 88.8}

====

# Test system: SN12C renal
# Protocol text: NCI-60 one-dose screen, 48 h (100 = growth as untreated, 0 = no growth, -100 = all killed)
# Experimental parameters: 10 µM
Compounds without any hit were thinned out: in the full panel of roughly 83,000, 20% have a hit.
Readout type: growth (%)

{"Molecule": "Cc1cc(N)c(S(=O)(=O)O)c(N)c1", "Readout number": 93.8}
{"Molecule": "O=P(O)(O)OCC(O)CO (configuration not stated)", "Readout number": 98.5}
{"Molecule": "CCCCCCCCCCCCCC(=O)Oc1ccc[nH]c1=O", "Readout number": 98.1}
{"Molecule": "COc1cccc(O)c1O", "Readout number": 74.5}
{"Molecule": "Cc1cccc([N+](=O)[O-])c1Cl", "Readout number": 106}
{"Molecule": "CC(=O)Oc1ccc(Br)cc1C(=O)O", "Readout number": 102}
{"Molecule": "CCc1ccc(/C(C#N)=C/C=C/c2ccccc2)cc1", "Readout number": 53.2}

====

# Tested on: MDA-MB-435 melanoma
# Protocol text: NCI-60 one-dose screen, 48 h
# Experimental parameters: 10 µM
About 83,000 compounds went through this panel and 20% of them were active in at least one assay; those are over-represented in the sample as a whole. Active and inactive are the calls of the source. How the source made its calls: active means growth percent below 10; inactive means the rest.
Outcome codes: label 1 = active, label 0 = inactive

{"Compound": "CN(C)c1ccc(C(c2ccc(O)cc2)c2ccc(N(C)C)cc2)cc1", "Category label": "label 0"}
{"Compound": "CCOC(=O)C(C#N)Cc1ccccc1 (stereo not given)", "Category label": "label 0"}
{"Compound": "CCOC(=O)c1[nH]c(C)c(C(C)=O)c1C", "Category label": "label 0"}
{"Compound": "O=c1cc(-c2ccccc2)nc2cc(-c3ccco3)[nH]n12", "Category label": "label 0"}
{"Compound": "COc1ccc(-c2cc3c(nn2)-c2ccccc2C3=O)cc1", "Category label": "label 0"}
{"Compound": "COc1cccc(Sc2ccc([N+](=O)[O-])c3no[n+]([O-])c23)c1", "Category label": "label 0"}
{"Compound": "CC(C(=O)O)(C1CCCCC1)C1(O)CCCCC1 (stereo not given)", "Category label": "label 0"}
{"Compound": "Cc1ccc(S(=O)(=O)O)c(C)c1", "Category label": "label 0"}
{"Compound": "CCCC(=O)Nc1ccc2c(c1)CN1C(=O)c3ccccc3C1=N2", "Category label": "label 0"}
{"Compound": "NC(C(=O)O)c1ccc([N+](=O)[O-])cc1 (stereo not given)", "Category label": "label 0"}
{"Compound": "CC(=O)CC(=O)N(C)C", "Category label": "label 0"}
{"Compound": "Cc1cc2nc(CO)[nH]c2cc1C", "Category label": "label 0"}
{"Compound": "O=C(O)c1cccc([N+](=O)[O-])c1O", "Category label": "label 0"}
{"Compound": "CNC(=S)NC(C)(C)C", "Category label": "label 0"}
{"Compound": "COS(=O)(=O)c1ccc(Br)cc1", "Category label": "label 0"}
{"Compound": "CN(c1ccccc1)c1ncnc2c1ncn2C", "Category label": "label 0"}
{"Compound": "CCOC(=O)C1=C(C)NC(=O)NC1c1cccs1 (stereo not given)", "Category label": "label 0"}
{"Compound": "CCc1nn(Cc2ccccc2)c2nc(C)c(CCc3ccccc3)c(Cl)c12", "Category label": "label 0"}
{"Compound": "O=C(N/N=C\\c1cc(Br)cc(Br)c1O)N/N=C/c1cc(Br)cc(Br)c1O", "Category label": "label 0"}
{"Compound": "O=c1[nH]n(-c2ccccc2)c(=O)cc1Cl", "Category label": "label 0"}
{"Compound": "O=C(Nc1ccccc1C(=O)NCC1CC1)c1cccs1", "Category label": "label 0"}
{"Compound": "CCOC(=O)C1=C(Nc2ccc(Br)cc2)C(=O)N(CC)C1", "Category label": "label 0"}
{"Compound": "OCc1ccc(-c2ccc(-c3ccc(CO)s3)o2)s1", "Category label": "label 0"}
{"Compound": "CC(C)NC(=O)OCc1c(COC(=O)NC(C)C)c(-c2ccc(Cl)c(Cl)c2)n2c1SCC2", "Category label": "label 0"}
{"Compound": "Cc1ccc(O)c(C(=O)c2ccccc2)c1", "Category label": "label 0"}
{"Compound": "Cc1nc2ccccc2c(C(=O)O)c1O", "Category label": "label 0"}
{"Compound": "O=[N+]([O-])c1ccc(Cl)c(S(=O)(=O)O)c1", "Category label": "label 0"}
{"Compound": "Nc1nc(N)c2cc(S(=O)(=O)c3cccc(C(F)(F)F)c3)ccc2n1", "Category label": "label 0"}
{"Compound": "N#Cc1c(N)sc(=S)c2c1CCCC2", "Category label": "label 0"}
{"Compound": "NC(CSC(c1ccccc1)(c1ccccc1)c1ccccc1)C(=O)O (stereo not given)", "Category label": "label 1"}
{"Compound": "CC(=O)c1ccc2c(ccc3ccccc32)c1", "Category label": "label 0"}
{"Compound": "CC(=Nc1ccccc1)C1=C(O)C(Cc2cccc(F)c2)NC1=O (stereo not given)", "Category label": "label 1"}
{"Compound": "Brc1cnc2ccccc2c1", "Category label": "label 0"}
{"Compound": "O=C(Cc1nc2ccc([N+](=O)[O-])cc2nc1CC(=O)c1cccnc1)c1cccnc1", "Category label": "label 0"}
{"Compound": "O=C1C[C@H](c2ccccc2)[C@H](c2ccccc2)C1", "Category label": "label 0"}
